Observed pKi values for human RIP1 (Homo sapiens) are listed in what follows.
Please treat pKi as minus the base-10 logarithm of the molar concentration.

Fill in reported pKi for this entry: `CN1C(=O)[C@@H](NC(=O)c2ncn(Cc3ccccc3)n2)COc2cc3occc3cc21`
7.72

Fill in reported pKi for this entry: `CN1C(=O)[C@@H](NC(=O)c2cn(Cc3ccccc3)cn2)COc2ccc3cnccc3c21`
8.16

Fill in reported pKi for this entry: `CN1C(=O)[C@@H](NC(=O)c2nnc(Cc3ccccc3)[nH]2)COc2cc3occc3cc21`
7.79

Fill in reported pKi for this entry: `Cc1ccc(Cc2cc(C(=O)N[C@H]3COc4cc5nccnc5cc4N(C)C3=O)nn2C)cc1`
7.64

Fill in reported pKi for this entry: `CN1C(=O)[C@@H](NC(=O)c2ncn(Cc3ccccc3)n2)COc2ccc3cnccc3c21`
7.90

Fill in reported pKi for this entry: `Cc1nc2cc3c(cc2[nH]1)OC[C@H](NC(=O)c1cn(Cc2ccccc2)cn1)C(=O)N3C`
7.54

Fill in reported pKi for this entry: `CN1C(=O)[C@@H](NC(=O)c2nnc(Cc3ccccc3)o2)COc2cc3occc3cc21`
7.71

Fill in reported pKi for this entry: `CN1C(=O)[C@@H](NC(=O)c2cn(Cc3ccccc3)nn2)COc2ccc3ncccc3c21`
7.69

Fill in reported pKi for this entry: `CN1C(=O)[C@@H](NC(=O)c2cc(Cc3ccccc3)on2)COc2ccc3ncccc3c21`
7.76

Fill in reported pKi for this entry: `CN1C(=O)[C@@H](NC(=O)c2ncn(Cc3ccccc3)n2)COc2ccc3ncccc3c21`
7.68

Fill in reported pKi for this entry: `CN1C(=O)[C@@H](NC(=O)c2noc(Cc3ccccc3)n2)COc2cc3occc3cc21`
7.63

Fill in reported pKi for this entry: `CN1C(=O)[C@@H](NC(=O)c2cn(Cc3ccccc3)nn2)COc2cc3occc3cc21`
7.49

Fill in reported pKi for this entry: `CN1C(=O)[C@@H](NC(=O)c2cc(Cc3ccccc3)on2)COc2ccc3cnccc3c21`
7.73

* * *

System: Jurkat (FADD−/−) cells
Experiment: Inhibition of TNF-induced programmed Jurkat (FADD−/−) cell necrosis (Cell Titer-Glo)
Format: cell-based, human
Conditions: Homo sapiens, Jurkat, 20 h, TNF 10 ng/mL, intracellular ATP level, read-out: Cellular IC50 (M) Jurkat (FADD−/−)
RECORDED_ENDPOINT: IC50

Identify measured IC50 obtained with Jurkat (FADD−/−) cells for CN1C(=O)[C@@H](NC(=O)c2cc(Cc3ccccc3)on2)CSc2cc3c(ccn3Cc3ccccc3)cc21 [RIP1-085] .
> 2e-06 M

Identify measured IC50 obtained with Jurkat (FADD−/−) cells for CN1C(=O)[C@@H](NC(=O)c2nc(Cc3ccccc3)n(C)n2)COc2cc3ncoc3cc21 [RIP1-220] .
> 2e-05 M

Identify measured IC50 obtained with Jurkat (FADD−/−) cells for CN1C(=O)[C@@H](NC(=O)c2cncn2Cc2ccccc2)CSc2cc3[nH]ccc3cc21 [RIP1-005] .
> 2e-06 M

* * *

Tested on: Jurkat (FADD−/−) cells
Experiment: Inhibition of TNF-induced programmed Jurkat (FADD−/−) cell necrosis (Cell Titer-Glo)
Type: cell-based, human
Details: Homo sapiens, Jurkat, 20 h, TNF 10 ng/mL, intracellular ATP level, read-out: Cellular IC50 (M) Jurkat (FADD−/−)
RECORDED_ENDPOINT: IC50 (M)
Express the result in M but write the number alone.

Fill in reported IC50 for this entry: `COc1ncnc2cc3c(cc12)N(C)C(=O)[C@@H](NC(=O)c1n[nH]c(Cc2ccccc2)n1)CO3`
1.85e-09

Fill in reported IC50 for this entry: `COc1ncnc2cc3c(cc12)N(C)C(=O)[C@@H](NC(=O)c1n[nH]c(Cc2c(F)cccc2F)n1)CO3`
2.8e-08

Fill in reported IC50 for this entry: `Cc1ccc(Cc2cc(C(=O)N[C@H]3COc4cc5nccnc5cc4N(C)C3=O)nn2C)cc1`
5.3e-08

Fill in reported IC50 for this entry: `CN1C(=O)[C@@H](NC(=O)c2n[nH]c(Cc3ccccc3)n2)COc2ccc3cccnc3c21`
1.07e-08

Fill in reported IC50 for this entry: `CN1C(=O)[C@@H](NC(=O)c2cn(Cc3ccccc3)nn2)COc2ccc3ncccc3c21`
3.27e-08

Fill in reported IC50 for this entry: `CN1C(=O)[C@@H](NC(=O)c2cn(Cc3ccccc3)nn2)COc2cc3[nH]ncc3cc21`
2.03e-09

Fill in reported IC50 for this entry: `Cc1nc2cc3c(cc2[nH]1)OC[C@H](NC(=O)c1cc(Cc2ccccc2)on1)C(=O)N3C`
5.86e-09

Fill in reported IC50 for this entry: `Cc1ccc(Cc2cc(C(=O)N[C@H]3CSc4cc5c(ccn5C)cc4N(C)C3=O)nn2C)cc1`
4.15e-08

Fill in reported IC50 for this entry: `CN1C(=O)[C@@H](NC(=O)c2cc(Cc3ccccc3)on2)COc2ccc3ncccc3c21`
5.5e-09
